tested on: MCF7; assay: Antiproliferative activity against human MCF7 cells after 72 hrs; format: functional, cell-based; conditions: MCF7, 72 h
Quantity Name: EC50

[Q] GET EC50 | system: MCF7 | item: `COc1cc(C(=O)N2CCC(N3CCCC3)CC2)ccc1Nc1ncc2c(n1)N(C)c1ccccc1C(=O)N2C`
[A] > 10 µM

====

assay: Cmax in rat at 1 mg/kg, iv; format: ADME, organism-based; design: dose 1 mg/kg, route intravenous; conditions: in vivo
Quantity Name: Cmax (ng/mL)
Reply numerically in ng/mL, unit not repeated.

[Q] # return recorded Cmax for input `CCOc1cc(N2CCC(O)CC2)ccc1Nc1ncc2c(n1)N(C)c1ccccc1C(=O)N2C`
[A] 439
